Data provenance is ChEMBL document CHEMBL1140975.

Experiment: Selectivity index, ratio of IC50 for human MRC5 cells to IC50 for chloroquine-resistant Plasmodium falciparum FcB1R/Colombia
Format: toxicity, cell-based
Condition Info: read-out: Ratio CC50/IC50
I'd appreciate it if you could supply selectivity ratio values for the items below.

Qu. Entry O=C(CN1CCCCC1)Nc1cc(COC(=O)NCCN2CCOCC2)cc(Nc2ccnc3cc(Cl)ccc23)c1 has what selectivity ratio?
Ans. > 259

Qu. Okay, and O=C(CN1CCCCC1)Nc1cc(Nc2ccnc3cc(Cl)ccc23)cc(C(=O)N2CCOCC2)c1 ?
Ans. > 298

Qu. Okay, and O=C(CN1CCCCC1)Nc1cc(COC(=O)NCc2ccccc2)cc(Nc2ccnc3cc(Cl)ccc23)c1 ?
Ans. > 347

Qu. Okay, and CN(C)CCCNC(=O)c1cc(NC(=O)CN2CCCCC2)cc(Nc2ccnc3cc(Cl)ccc23)c1 ?
Ans. > 177

Qu. Okay, and O=C(CN1CCCCC1)Nc1cc(Nc2ccnc3cc(Cl)ccc23)cc(C(=O)NCCN2CCOCC2)c1 ?
Ans. > 546

---

I'd appreciate it if you could supply CC50 at 168 h values for the items below.
Experiment: Cytotoxicity against human MRC5 cells after 7 days by MTT assay
Type: cell-based

Qu. Entry O=C(CN1CCCCC1)Nc1cc(Nc2ccnc3cc(Cl)ccc23)cc(C(=O)NCCN2CCOCC2)c1 has what CC50 at 168 h?
Ans. > 32 µM

Qu. Okay, and O=C(CN1CCCCC1)Nc1cc(COC(=O)NCc2ccccc2)cc(Nc2ccnc3cc(Cl)ccc23)c1 ?
Ans. > 12.5 µM

Qu. Okay, and O=C(CN1CCCCC1)Nc1cc(Nc2ccnc3cc(Cl)ccc23)cc(C(=O)O)c1 ?
Ans. > 32 µM
